- test-summary: PSAC antagonists in infected red cells, primary screen, cell-based, P. falciparum Indochina, OD700, 2 h (AID 1155);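 note: lysis reports solute entry through the parasite surface anion channel PSAC; channel blockers reduce lysis of infected cells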
- study-conditions: P. falciparum Indochina infected erythrocytes, osmotic lysis OD700; higher = more signal, called active from +8 up or from −8 down
Quick list: z-score per entry.
// no unit string in output, number only

Cc1ccc(S[C@]2(C(=O)NCC(F)(F)F)CC(=O)N(Cc3ccccc3)[C@@H]2c2ccc(CO)cc2I)cc1 = 0.283

query: Record request: z-score value, item C=CC[C@@]1(C(=O)N2CCOCC2)N=C(c2ccc(OCCCO)cc2)O[C@@H]1c1ccccc1CN=[N+]=[N-]
result: 4.83

query: Record request: z-score value, item NCCCCCCNC(=O)[C@@H]1C[C@@H]2C(=O)N[C@@H](CCCCN)C(=O)N2[C@@H]1c1cccc(OCCO)c1
result: 0.289

query: Record request: z-score value, item COc1ccc([Si](C)(C)[C@@H]2[C@@H](CC(=O)N(CCO)Cc3ccccc3)O[C@]3(C(=O)N(c4ccccc4)c4ccccc43)[C@H]2C)cc1
result: 1.2
